- ASSAY SUMMARY: Hydrate screen in IPA/water system: solubility of slurried Form I
- Assay type: physicochemical
- RUN CONDITIONS: isopropyl alcohol/water mixture, organic solvent or mixture, thermodynamic from solid, IPA/water aw 0.3, room temperature; solid by XRPD Form I & II; read-out: 15-16 Day Solubility
ENDPOINT: solubility

{"MOLECULE": "CC[C@H](Nc1ncnc2[nH]cnc12)c1nc2cccc(F)c2c(=O)n1-c1ccccc1 [Form I]", "ENDPOINT": "solubility", "EXPERIMENTAL VALUE": "19 mg/mL"}

Value source: patent US9469643B2
